assay system: T1, CD123 Protein, His Tag, Acro Biosciences Cat. No. ILA-H52H6 (Homo sapiens (Human), UniProt P26951 19-305)
T1 construct: Bought protein; not shown: His tag
T1 sequence: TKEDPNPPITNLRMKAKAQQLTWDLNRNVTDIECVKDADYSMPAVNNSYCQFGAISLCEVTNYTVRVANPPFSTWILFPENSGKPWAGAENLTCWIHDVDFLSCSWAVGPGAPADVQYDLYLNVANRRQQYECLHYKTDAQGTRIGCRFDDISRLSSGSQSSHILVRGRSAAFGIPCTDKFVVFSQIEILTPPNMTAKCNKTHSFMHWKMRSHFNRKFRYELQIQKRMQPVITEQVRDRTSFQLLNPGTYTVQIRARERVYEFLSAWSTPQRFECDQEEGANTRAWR
test details: BLI, IgG on anti-human Fc sensor, 50 nM CD123, pH 7.4 and pH 5.4
parameter measured: binding result

[[record]]
binder = "MYT2791 (antibody, V domains shown, IgG) VH: QVQLVQSGAEVKKPGASVKVSCKASGYIFTSSIMHWVRQAPGQGLEWIGYIKPYNDGTKYNEKFKGRATLTSDRSTSTAYMELSSLRSEDTAVYYCAREGGNDYYDTMDYWGQGTLVTVSS VL: DIQMTQSPSSLSASVGDRVTITCRASQDINSYLSWFQQKPGKAPKTLIYRVNRLVDGVPSRFSGSGSGNDYTLTISSLQPEDFATYYCHQYDAFPYTFGQGTKVEIK"
parameter_measured = "binding result"
observed = "binds"

[[record]]
binder = "MYT1290 (antibody, V domains shown, IgG) VH: QVQLVQSGAEVKKPGASVKVSCKASGYIFTSSIMHWVRQAPGQGLEWIGYIKPYNDGTKYNEKFKGRATLTSDRSTSTAYMELSSLRSEDTAVYYCAREGGNDYYDTHDYWGQGTLVTVSS VL: DIQMTQSPSSLSASVGDRVTITCRASQDINSYLSWFQQKPGKAPKTLIYRVNRLVDGVPSRFSGSGSGNDYTLTISSLQPEDFATYYCLQYDAFPYTFGQGTKVEIK"
parameter_measured = "binding result"
observed = "binds"

[[record]]
binder = "MYT1284 (antibody, V domains shown, IgG) VH: QVQLVQSGAEVKKPGASVKVSCKASGYIFTSSIMHWVRQAPGQGLEWIGYIKPYNDGTKYNEKFKGRATLTSDRSTSTAYMELSSLRSEDTAVYYCAREGGHDYYDTMDYWGQGTLVTVSS VL: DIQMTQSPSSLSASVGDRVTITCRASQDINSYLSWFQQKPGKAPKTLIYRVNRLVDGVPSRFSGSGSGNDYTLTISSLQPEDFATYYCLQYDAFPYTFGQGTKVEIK"
parameter_measured = "binding result"
observed = "binds"

